All values here come from patent US20150239889A1.

The following are reported pIC50 results, target or system human HIF-PHD3 (Homo sapiens, UniProt Q9H6Z9).
pIC50: −log10 of the molar value.
measured.endpoint: pIC50

> print(dat)
                                    compound  result.modifier  obs.value
 1  O=C(O)c1cnn(-c2nc(O)c3c(n2)c(Cl)nn3CC2CCCC2)c1                =       6.17
 2  O=C(O)c1cnn(-c2nc(O)c3c(cnn3Cc3ccc(-c4ccc(C(F)(F)F)cc4Cl)cc3)n2)c1                =       6.57
 3  CC1CC(n2ncc3nc(-n4cc(C(=O)O)cn4)nc(O)c32)CC(C)(C)C1 (centres unmarked) [Example 409]                =       6.38
 4  CC(C)C(c1cccc(C(F)(F)F)c1)n1ncc2nc(-n3cc(C(=O)O)cn3)nc(O)c21 (single isomer, unassigned) [Example 363]                =       5.89
 5  O=C(O)c1cnn(-c2nc(O)c3c(cnn3Cc3ccc(C4CC4)cc3)n2)c1                =       6.72
 6  COc1ccccc1-c1ccc(Cn2ncc3nc(-n4cc(C(=O)O)cn4)nc(O)c32)c(F)c1                =       7.18
 7  CCC(c1ccc(Cl)cc1)n1ncc2nc(-n3cc(C(=O)O)cn3)nc(O)c21 (centres unmarked)                =       6.74
 8  Cc1ccc2cc(CCn3ncc4nc(-n5cc(C(=O)O)cn5)nc(O)c43)ccc2c1                =       7.21
 9  CC(C)(Cn1ncc2nc(-n3cc(C(=O)O)cn3)nc(O)c21)Oc1ccc2c(c1)CCCC2                =       6.66
10  CC(C)C(c1ccc(C(F)(F)F)cc1)n1ncc2nc(-n3cc(C(=O)O)cn3)nc(O)c21 (centres unmarked)                =       6.15
11  O=C(O)c1cnn(-c2nc(O)c3c(n2)c(Cl)nn3CC2CCCCCC2)c1                =       5.85
12  O=C(O)c1cnn(-c2nc(O)c3c(cnn3Cc3ccc(F)c(C(F)(F)F)c3)n2)c1                <       5.52
13  C[C@H]1CC[C@H](Cn2nc(Cl)c3nc(-n4cc(C(=O)O)cn4)nc(O)c32)CC1                =       6.02
14  COc1cc(Cn2ncc3nc(-n4cc(C(=O)O)cn4)nc(O)c32)ccc1-c1ccccc1C                =       6.72
15  CC(C)C(c1ccc(F)cc1)n1ncc2nc(-n3cc(C(=O)O)cn3)nc(O)c21 (centres unmarked) [Example 354]                =       6.17
16  CC1(C)CC(=O)N(c2ccc(Cn3ncc4nc(-n5cc(C(=O)O)cn5)nc(O)c43)cc2)C1                =       6.31
17  O=C(O)c1cnn(-c2nc(O)c3c(cnn3Cc3ccc(-c4c(F)cccc4F)cc3F)n2)c1                =       6.77
18  O=C(O)c1cnn(-c2nc(O)c3c(cnn3C[C@H]3CC[C@H](c4ccc(Cl)cc4)CC3)n2)c1                =       6.80
19  Cc1c(CCn2ncc3nc(-n4cc(C(=O)O)cn4)nc(O)c32)ccc2ccccc12                =       6.38
20  Cc1ccc(F)c(C(C)n2ncc3nc(-n4cc(C(=O)O)cn4)nc(O)c32)c1 (centres unmarked)                =       6.05
21  CC(C)(C)[C@H]1CC[C@H](Cn2nc(Cl)c3nc(-n4cc(C(=O)O)cn4)nc(O)c32)CC1                =       6.82
22  CC(c1ccc(F)c(C(F)(F)F)c1)n1ncc2nc(-n3cc(C(=O)O)cn3)nc(O)c21 (single isomer, unassigned) [Example 304]                =       6.64
23  O=C(O)c1cnn(-c2nc(O)c3c(cnn3CCCCc3ccc(Cl)cc3)n2)c1                =       6.68
24  CC1(C)CCC(Cn2ncc3nc(-n4cc(C(=O)O)cn4)nc(O)c32)CC1                =       6.40
25  Cc1cccc(OCCCn2ncc3nc(-n4cc(C(=O)O)cn4)nc(O)c32)c1C                =       6.77
26  COc1ccc([C@H](C)n2ncc3nc(-n4cc(C(=O)O)cn4)nc(O)c32)cc1                =       6.02
27  O=C(O)c1cnn(-c2nc(O)c3nn(CCCN(c4ccccc4)c4ccccc4)cc3n2)c1                =       6.80
28  CC(C)(Cn1ncc2nc(-n3cc(C(=O)O)cn3)nc(O)c21)c1ccc2ccccc2c1                =       6.49
29  O=C(O)c1cnn(-c2nc(O)c3c(cnn3CC3CCNCC3)n2)c1                =       5.68
30  O=C(O)c1cnn(-c2nc(O)c3c(cnn3CCc3cccc(Cl)c3)n2)c1                =       6.52
31  Cc1ccc(F)cc1[C@H](C)n1ncc2nc(-n3cc(C(=O)O)cn3)nc(O)c21                =       6.08
32  O=C(O)c1cnn(-c2nc(O)c3c(cnn3Cc3cccc(C(F)(F)F)c3)n2)c1                =       6.39
